Listing of recorded binding signal by entry.
TARGET_OF_ASSAY: MBP-FoxP3dN (Mus musculus, UniProt Q99JB6 188-423)
Sequence: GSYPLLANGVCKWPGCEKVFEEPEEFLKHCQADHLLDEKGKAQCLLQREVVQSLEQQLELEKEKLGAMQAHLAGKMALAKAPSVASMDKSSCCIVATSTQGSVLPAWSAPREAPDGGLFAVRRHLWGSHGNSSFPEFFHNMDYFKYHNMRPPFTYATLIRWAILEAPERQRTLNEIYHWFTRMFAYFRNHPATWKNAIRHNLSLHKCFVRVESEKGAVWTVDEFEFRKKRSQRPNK
ASSAY_COMMENT: PD-seq (MBP pull-down with sequencing); 20 mM Tris-HCl pH 7.5, 100 mM NaCl, 1.5 mM MgCl2, 0.4 uM protein, 0.1 uM dsDNA library, 30 min, room temperature, amylose pull-down; high values mean tight binding
CONDITION_NOTES: protein: recombinant; tags: His6-MBP; chain copies: 2; dsDNA, one strand shown
In all, about 16,000 sequences were measured (“rpm ratio (pull-down/input)”: median about 0.5, highest 2% from about 5.5 on). The full list was thinned out, with the highest values kept by preference.
QUANTITY_NAME: binding signal

GATGATTGTTCTCCCAGCTGATGAATTAAAGTGTTCGAGTAAACAAATTTTCCTAATCTTTCTGTTCAAGCGCCATCTAC | 0.592 RPM ratio (pull-down/input)
GATGATTGTTCTCCCAGCTGATGAATTTGCGCCTTCGAGTAAACAAATTTTCCTAATCTTTCTGTTCAAGCGCCATCTAC | 3.88 RPM ratio (pull-down/input)
GATGATTGTTCTCCCAGCTGATGAATTTTGCCTTTCGAGTAAACAAATTTTCCTAATCTTTCTGTTCAAGCGCCATCTAC | 5.56 RPM ratio (pull-down/input)
GATGATTGTTCTCCCAGCTGATGAATTGCGCCTTTCGAGTAAACAAATTTTCCTAATCTTTCTGTTCAAGCGCCATCTAC | 6.82 RPM ratio (pull-down/input)

###

TARGET_OF_ASSAY: MBP-FoxP3dN (Mus musculus, UniProt Q99JB6 188-423)
Sequence: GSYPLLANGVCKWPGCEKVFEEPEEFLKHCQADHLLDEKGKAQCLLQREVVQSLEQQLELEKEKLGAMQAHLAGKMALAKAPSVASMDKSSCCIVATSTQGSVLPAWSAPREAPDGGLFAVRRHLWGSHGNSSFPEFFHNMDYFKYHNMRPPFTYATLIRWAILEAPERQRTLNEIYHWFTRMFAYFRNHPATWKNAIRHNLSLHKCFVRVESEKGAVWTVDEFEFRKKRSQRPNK
ASSAY_COMMENT: PD-seq (MBP pull-down with sequencing); 20 mM Tris-HCl pH 7.5, 100 mM NaCl, 1.5 mM MgCl2, 0.4 uM protein, 0.1 uM dsDNA library, 30 min, room temperature, amylose pull-down; high values mean tight binding
CONDITION_NOTES: protein: recombinant; tags: His6-MBP; chain copies: 2; dsDNA, one strand shown
Over roughly 16,000 sequences, “rpm ratio (pull-down/input)” has its median near 0.5; the highest 2% begin near 5.5. For the sample, the highest values were picked, then their nearest neighbours and some sequences at random.
QUANTITY_NAME: binding signal

GATGATTGTTCTCCCAGCTGATGAATTAATTATGTCGAGTAAACAAATTTTCCTAATCTTTCTGTTCAAGCGCCATCTAC | 1.89 RPM ratio (pull-down/input)
GATGATTGTTCTCCCAGCTGATGAATTACACATATCGAGTAAACAAATTTTCCTAATCTTTCTGTTCAAGCGCCATCTAC | 0.87 RPM ratio (pull-down/input)
GATGATTGTTCTCCCAGCTGATGAATTAAATTTCTCGAGTAAACAAATTTTCCTAATCTTTCTGTTCAAGCGCCATCTAC | 0.664 RPM ratio (pull-down/input)
GATGATTGTTCTCCCAGCTGATGAATTTTGTGCATCGAGTAAACAAATTTTCCTAATCTTTCTGTTCAAGCGCCATCTAC | 2.27 RPM ratio (pull-down/input)
GATGATTGTTCTCCCAGCTGATGAATTCACTCAATCGAGTAAACAAATTTTCCTAATCTTTCTGTTCAAGCGCCATCTAC | 0.294 RPM ratio (pull-down/input)
GATGATTGTTCTCCCAGCTGATGAATTAAGCTGTTCGAGTAAACAAATTTTCCTAATCTTTCTGTTCAAGCGCCATCTAC | 1.12 RPM ratio (pull-down/input)
GATGATTGTTCTCCCAGCTGATGAATTATATGCCTCGAGTAAACAAATTTTCCTAATCTTTCTGTTCAAGCGCCATCTAC | 0.913 RPM ratio (pull-down/input)
GATGATTGTTCTCCCAGCTGATGAATTCCAGTGGTCGAGTAAACAAATTTTCCTAATCTTTCTGTTCAAGCGCCATCTAC | 0.415 RPM ratio (pull-down/input)
GATGATTGTTCTCCCAGCTGATGAATTATGAATGTCGAGTAAACAAATTTTCCTAATCTTTCTGTTCAAGCGCCATCTAC | 1.04 RPM ratio (pull-down/input)
GATGATTGTTCTCCCAGCTGATGAATTTCTTGCCTCGAGTAAACAAATTTTCCTAATCTTTCTGTTCAAGCGCCATCTAC | 0.494 RPM ratio (pull-down/input)
GATGATTGTTCTCCCAGCTGATGAATTTAAGGATTCGAGTAAACAAATTTTCCTAATCTTTCTGTTCAAGCGCCATCTAC | 0.302 RPM ratio (pull-down/input)
GATGATTGTTCTCCCAGCTGATGAATTTTGCCCTTCGAGTAAACAAATTTTCCTAATCTTTCTGTTCAAGCGCCATCTAC | 1.57 RPM ratio (pull-down/input)
GATGATTGTTCTCCCAGCTGATGAATTCACCTTATCGAGTAAACAAATTTTCCTAATCTTTCTGTTCAAGCGCCATCTAC | 0.363 RPM ratio (pull-down/input)
GATGATTGTTCTCCCAGCTGATGAATTGTGCCTTTCGAGTAAACAAATTTTCCTAATCTTTCTGTTCAAGCGCCATCTAC | 6.1 RPM ratio (pull-down/input)
GATGATTGTTCTCCCAGCTGATGAATTATAACCGTCGAGTAAACAAATTTTCCTAATCTTTCTGTTCAAGCGCCATCTAC | 0.364 RPM ratio (pull-down/input)
GATGATTGTTCTCCCAGCTGATGAATTGGGTGAGTCGAGTAAACAAATTTTCCTAATCTTTCTGTTCAAGCGCCATCTAC | 0.443 RPM ratio (pull-down/input)
GATGATTGTTCTCCCAGCTGATGAATTGTCTCATTCGAGTAAACAAATTTTCCTAATCTTTCTGTTCAAGCGCCATCTAC | 0.539 RPM ratio (pull-down/input)
GATGATTGTTCTCCCAGCTGATGAATTTTAAGCATCGAGTAAACAAATTTTCCTAATCTTTCTGTTCAAGCGCCATCTAC | 0.881 RPM ratio (pull-down/input)
GATGATTGTTCTCCCAGCTGATGAATTATGCCTCTCGAGTAAACAAATTTTCCTAATCTTTCTGTTCAAGCGCCATCTAC | 6.22 RPM ratio (pull-down/input)
GATGATTGTTCTCCCAGCTGATGAATTATGCTGTTCGAGTAAACAAATTTTCCTAATCTTTCTGTTCAAGCGCCATCTAC | 3.42 RPM ratio (pull-down/input)
GATGATTGTTCTCCCAGCTGATGAATTGTGCATCTCGAGTAAACAAATTTTCCTAATCTTTCTGTTCAAGCGCCATCTAC | 8.03 RPM ratio (pull-down/input)
GATGATTGTTCTCCCAGCTGATGAATTCCGATCATCGAGTAAACAAATTTTCCTAATCTTTCTGTTCAAGCGCCATCTAC | 0.404 RPM ratio (pull-down/input)
GATGATTGTTCTCCCAGCTGATGAATTTACAGGATCGAGTAAACAAATTTTCCTAATCTTTCTGTTCAAGCGCCATCTAC | 0.329 RPM ratio (pull-down/input)
GATGATTGTTCTCCCAGCTGATGAATTCAACTGATCGAGTAAACAAATTTTCCTAATCTTTCTGTTCAAGCGCCATCTAC | 0.332 RPM ratio (pull-down/input)
GATGATTGTTCTCCCAGCTGATGAATTCTAAAGCTCGAGTAAACAAATTTTCCTAATCTTTCTGTTCAAGCGCCATCTAC | 0.248 RPM ratio (pull-down/input)
GATGATTGTTCTCCCAGCTGATGAATTAAGCATCTCGAGTAAACAAATTTTCCTAATCTTTCTGTTCAAGCGCCATCTAC | 6.6 RPM ratio (pull-down/input)
GATGATTGTTCTCCCAGCTGATGAATTTTTACGATCGAGTAAACAAATTTTCCTAATCTTTCTGTTCAAGCGCCATCTAC | 0.226 RPM ratio (pull-down/input)
GATGATTGTTCTCCCAGCTGATGAATTTCGGTGCTCGAGTAAACAAATTTTCCTAATCTTTCTGTTCAAGCGCCATCTAC | 0.541 RPM ratio (pull-down/input)
GATGATTGTTCTCCCAGCTGATGAATTCTATAGGTCGAGTAAACAAATTTTCCTAATCTTTCTGTTCAAGCGCCATCTAC | 0.372 RPM ratio (pull-down/input)
